pIC50: −log10 of the molar value.
Compiled notes: published pIC50 values involving E3 ubiquitin-protein ligase SMURF1 (Homo sapiens).
measured-parameter: pIC50

# example entries with known answers
compound: COCc1ccc(-c2onc(C(=O)Nc3c(C)n(C)n(C4CCCCC4)c3=O)c2C)c(Cl)c1
assayed-system: E3 ubiquitin-protein ligase SMURF1 (Homo sapiens)
recorded-value: 7.38
//
compound: Cc1c(C(=O)Nc2c(C)n(C)n(C3CCCCC3)c2=O)noc1C1=CCC(C(F)(F)F)CC1 (stereo not shown)
assayed-system: E3 ubiquitin-protein ligase SMURF1 (Homo sapiens)
recorded-value: 7.48

[a] Cc1c(C(=O)Nc2c(C)n(C)n(-c3ccccc3F)c2=O)nnn1-c1ccc(OC(F)(F)F)cc1Cl
[b] Cc1c(NC(=O)c2nnn3c2CCCc2cc(OC(F)(F)F)ccc2-3)c(=O)n(C2CCCCC2)n1C
Query block: Lab note: check whether a or b shows the higher recorded pIC50. Returns: label corresponding to the selected item.
Result block: b
